measured endpoint: melting point (°C)

{"columns": ["molecule", "measured endpoint", "quantitative result"],
 "data": [
  ["CC(C)(C)OC(=O)N1CCOC(C2=C(C#N)C(c3cccc(C#N)c3Br)c3c[nH]nc3N2)C1 (centres undefined)", "melting point", 219],
  ["CCCN(CCC)C(=O)CN(C(=O)CNC(=O)Nc1cccc(C)c1)c1ccccc1", "melting point", 182]
]}

---

{"columns": ["compound", "melting point"],
 "data": [
  ["Cc1ccc(N(C)S(=O)(=O)c2cccs2)c2[nH]c(C(=O)O)cc12", "223 to 225 °C"],
  ["Nc1ccc(OC(F)(F)F)cc1C=O", "42 to 44 °C"],
  ["O=P(O)(O)c1cccc(Br)c1", "144 to 149 °C"],
  ["CCOC(=O)COc1cc(OCc2ccccc2)ccc1C#N", "84 °C"],
  ["COC(=O)/C=C(\\CCCCc1ccccc1)Sc1ccc(OC)c(OC)c1", "53 to 55 °C"],
  ["CN1C(=O)C2CCCN2Cc2cc(Cl)ccc21 (stereo unspecified)", "97 to 99 °C"]
]}

---

# melting point per record follows

{"columns": ["compound", "melting point"],
 "data": [
  ["Cc1cc(C)cc(COC(=O)[C@H](Cc2cccc3ccccc23)NC(=O)OC(C)(C)C)c1", "93 to 94 °C"],
  ["Cc1cnn(C(C)(C)C(=O)N(C)C)c1-c1ccccc1", "136 to 139 °C"],
  ["COc1ccc2c(c1)c1c(n2CCc2noc(-c3ccccc3)n2)CCN(C)C1", "77.5 to 79 °C"],
  ["CC(C(=O)c1ccc(F)cc1F)n1cnc(-c2ccc(OCc3ccccc3)cc2)n1 (stereo not given)", "80 to 97 °C"],
  ["Clc1c2ccccc2nc2c1oc1ccccc12", "158 to 159 °C"],
  ["O=[N+]([O-])c1ccc(OC2OC(CO)C(O)C2O)cc1 (stereo not given)", "156 to 158 °C"],
  ["CN1C(=O)C(C)(C)C(=O)Nc2cc(C=O)ccc21", "208 to 210 °C"],
  ["CCOC(=O)C1=Cc2cc(C(F)F)ccc2OC1C(F)(F)F (stereo not given)", "135 to 136 °C"],
  ["COC(=O)C(ON1C(C)(C)CCCC1(C)C)c1ccccc1 (stereo not given)", "83 to 86 °C"],
  ["CCOC(=O)c1ccc(Cn2cnc3ccncc32)cc1", "110 to 112 °C"],
  ["COc1cc2nc(N)nc(-c3ccccc3I)c2cc1OC", "225 to 230 °C"],
  ["CCc1nc2c(cnn2CC)c(NC2CCOCC2)c1CNC(=O)c1cccc(C(=O)NCc2ccc(C)c(-c3cccc(CN4CCN(C)CC4)c3)c2)c1", "121 to 124 °C"],
  ["NC(=O)Nc1cccc2c1C(=O)c1c-2n[nH]c1-c1ccco1", "278 °C"],
  ["COc1ccc(C=CC(=O)Nc2cnc3c(C)cc(C)cc3c2-c2ccccc2Cl)c(OC)c1OC", "200 to 201 °C"],
  ["COc1ccc(OC)c(-c2ccc(C(C)=NOCCOc3ccc(CC4SC(=O)NC4=O)cc3)cc2)c1 (stereo not given)", "47 to 52 °C"],
  ["CC(C)n1c(=S)nc(-c2ccccc2)c2cc3c(cc21)OCO3", "202 to 205 °C"],
  ["O=[N+]([O-])c1cc(F)c(N2CCSCC2)c(F)c1", "104 to 105 °C"],
  ["CCOC(=O)c1c(O)c2cc(Cl)ccc2c(=O)n1C", "110 to 111 °C"],
  ["COc1cc(Cl)c2c(c1)NC(=O)C(C)(c1ccc(Br)cc1)C2=O (stereo not given)", "239 to 240 °C"],
  ["Nc1nc(N)nc(-c2ccc(OCc3ccc(Cl)cc3)cc2)n1", "246 to 248 °C"]
]}
